procedure details: Antiproliferative activity against mouse NIH/3T3 cells assessed as growth inhibition after 48 hrs by sulforhodamine B assay
Type: cell-based
conditions: NIH3T3, 48 h

- sample smiles: "CC(=O)O[C@@]12CO[C@@H]1C[C@H](O)[C@@]1(C)C(=O)[C@H](O)C3=C(C)[C@@H](O)C[C@@](O)([C@@H](OC(=O)c4ccccc4)[C@H]21)C3(C)C"
  IC50: "> 25 µM"
- sample smiles: "CC(=O)O[C@@]12CO[C@@H]1C[C@H](O[C@@H]1OC[C@@H](O)[C@H](O)[C@H]1O)[C@@]1(C)C(=O)[C@H](O)C3=C(C)[C@@H](OC(=O)[C@H](O)[C@@H](NC(=O)c4ccccc4)c4ccccc4)C[C@@](O)([C@@H](OC(=O)c4ccccc4)[C@H]21)C3(C)C"
  IC50: "> 25 µM"
- sample smiles: "C=C1[C@@H](OC(=O)/C=C/c2ccccc2)C[C@H](OC(C)=O)[C@]2(C)[C@@H]1C[C@@H]1C[C@H](OC(C)=O)C(C)=C([C@@H](OC(C)=O)[C@@H]2OC(C)=O)C1(C)C"
  IC50: "15 µM"
- sample smiles: "C/C=C(\\C)C(=O)N[C@@H](c1ccccc1)[C@@H](O)C(=O)O[C@H]1C[C@@]2(O)[C@@H](OC(=O)c3ccccc3)[C@@H]3[C@]4(OC(C)=O)CO[C@@H]4C[C@H](O[C@@H]4OC[C@@H](O)[C@H](O)[C@H]4O)[C@@]3(C)C(=O)[C@H](O)C(=C1C)C2(C)C"
  IC50: "> 25 µM"

Data provenance: ChEMBL document CHEMBL3396968
